- Test system: Human papillomavirus type 1a protein E7 (residues 44-93)
- protocol description: HPV1a E7 fragment binders on microarrays, primary screen, biochemical, small-molecule microarray, residues 44-93, 635 nm fluorescence (AID 1108);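 further: E7 fragment applied at 1 µg/mL in TBST for 1 h at 4 C; score combines spot fluorescence with its signal to noise ratio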
- experimental parameters: small-molecule microarray binding, fluorescence 635 nm; higher = more signal
value type: composite z-score
Respond using a number only.

Challenge: Missing value: composite z-score, Human papillomavirus type 1a protein E7 (residues 44-93), entry COc1ccc([Si](C)(C)[C@@H]2[C@@H](CC(=O)N3CCC[C@H]3CO)O[C@]3(C(=O)N(Cc4ccc(I)cc4)c4ccccc43)[C@H]2C)cc1 . Fill in?
Response given: 0.152

Challenge: Missing value: composite z-score, Human papillomavirus type 1a protein E7 (residues 44-93), entry C=C1C=C(Br)C2(OCCCO2)[C@H]2OC12 (stereo partly drawn) . Fill in?
Response given: -0.524

Challenge: Missing value: composite z-score, Human papillomavirus type 1a protein E7 (residues 44-93), entry CO[C@H]1O[C@H](CO)[C@@H](OC(=O)CCc2ccccc2)[C@@H]2OC(=O)[C@H](Cc3ccccc3)C/C=C/C[C@@H](Cc3ccccc3)C(=O)O[C@@H]12 . Fill in?
Response given: -0.673

Challenge: Missing value: composite z-score, Human papillomavirus type 1a protein E7 (residues 44-93), entry C=CCC(OC(C)=O)[C@@H]1[C@@H](N(Cc2ccc(-c3cccc(C(F)(F)F)c3)o2)C(=O)c2ccc(-c3ccccc3)cc2)c2cc(OCCCO)ccc2N1C(=O)Cc1ccc(OC)cc1 (stereo partly drawn) . Fill in?
Response given: -0.0271

Challenge: Missing value: composite z-score, Human papillomavirus type 1a protein E7 (residues 44-93), entry C=CCC(OC(C)=O)[C@@H]1[C@@H](N(Cc2cc3ccccc3o2)C(=O)c2ccc(-c3ccccc3)cc2)c2cc(OCCCO)ccc2N1C(=O)c1ccc(-c2ccccc2)cc1 (stereo partly drawn) . Fill in?
Response given: -0.292

Challenge: Missing value: composite z-score, Human papillomavirus type 1a protein E7 (residues 44-93), entry C=CCNC(=O)[C@@H]1[C@H]2C(=O)O[C@H](c3ccccc3)[C@H](c3ccccc3)N2[C@H](c2ccc(O)cc2)[C@@]12C(=O)N(C(=O)OCCOC)c1ccc(C#Cc3ccc(OC)cc3)cc12 . Fill in?
Response given: 1.13

---

- protocol description: small-molecule microarray binders of probe aCHRDL2, primary screen, biochemical, biotinylated probe, 635/667 nm fluorescence (AID 1100)
- experimental parameters: higher = more signal
Classes by composite z-score: low interval: < 0.4; middle interval: ≥ 0.4 and < 0.9; high interval: ≥ 0.9

molecule	group label
CC(CO)N1C(=O)[C@@H]2C3C(=O)OCCC/C=C\[C@H]3OC23C=CCN(Cc2ccccc2)C(=O)[C@@H]13 (stereo not given in full)	low interval
C#CCOc1ccc(C[C@H]2C(=O)O[C@H](Cc3ccccc3)[C@H](/C=C/C3CC3)N2CC#C)cc1	low interval
C=C(CCCC)/C(=C/C[C@H](OC(=O)c1ccncc1)c1ccc(CO)o1)c1cnc2ccccc2c1	low interval
C=CCNC(=O)[C@@H]1[C@H]2C(=O)O[C@H](c3ccccc3)[C@H](c3ccccc3)N2[C@H](c2ccc(O)cc2)[C@@]12C(=O)Nc1ccccc12	low interval
[N-]=[N+]=NCc1ccccc1C[C@@]1(C(=O)O)N=C(c2ccc(OCCCO)cc2)O[C@@H]1c1ccccc1	high interval

API: the following record is the query input.
Challenge: Field: class (composite z-score) — entry: NC(=O)N1C(=O)C2C(C1=O)C1C=C(c3ccc(CO)cc3)C2C(C2CC2)N1Cc1cc2c(cc1Br)OCO2 (stereo not given)
Response given: middle interval

src = PubChem BioAssay
